Exercise: for every item that follows, state its recorded AC50.

Request - read-out AC50 | tested on Cytochrome P450 3A4 (Homo sapiens, UniProt P08684) | compound CCOc1nc(NCCN2CCOCC2)nc(Nc2ccc(C)cc2)n1
15.8 µM (inconclusive)

GET /values?readout=AC50&system=Cytochrome P450 3A4 (Homo sapiens, UniProt P08684)&item= CN(C)Cc1ccccc1-c1ccc2ncnc(N(C)Cc3ccco3)c2c1
15.8 µM (inconclusive)

Requested read-out AC50, target or system Cytochrome P450 3A4 (Homo sapiens, UniProt P08684), entry COCCNC(=O)C(c1ccc(C)o1)N(CC1CCCO1)C(=O)Cn1nnc2ccccc21 (stereo unspecified)
15.8 µM (inconclusive)

Recorded AC50 for Cc1ccc(-c2cc[nH]c(=S)n2)cc1 with Cytochrome P450 3A4 (Homo sapiens, UniProt P08684), please?
14.1 µM (inconclusive)

Lookup: AC50 / Cytochrome P450 3A4 (Homo sapiens, UniProt P08684) / COc1ccccc1CNc1cc(-c2ccccc2C)ncn1
31.6 µM (inconclusive)

Provide the documented AC50 with Cytochrome P450 3A4 (Homo sapiens, UniProt P08684) as the system for CCOC(=O)CSc1nnc(Cc2cc(O)nc(O)n2)n1-c1cccc(OC)c1
Sequence (P08684 whole entry): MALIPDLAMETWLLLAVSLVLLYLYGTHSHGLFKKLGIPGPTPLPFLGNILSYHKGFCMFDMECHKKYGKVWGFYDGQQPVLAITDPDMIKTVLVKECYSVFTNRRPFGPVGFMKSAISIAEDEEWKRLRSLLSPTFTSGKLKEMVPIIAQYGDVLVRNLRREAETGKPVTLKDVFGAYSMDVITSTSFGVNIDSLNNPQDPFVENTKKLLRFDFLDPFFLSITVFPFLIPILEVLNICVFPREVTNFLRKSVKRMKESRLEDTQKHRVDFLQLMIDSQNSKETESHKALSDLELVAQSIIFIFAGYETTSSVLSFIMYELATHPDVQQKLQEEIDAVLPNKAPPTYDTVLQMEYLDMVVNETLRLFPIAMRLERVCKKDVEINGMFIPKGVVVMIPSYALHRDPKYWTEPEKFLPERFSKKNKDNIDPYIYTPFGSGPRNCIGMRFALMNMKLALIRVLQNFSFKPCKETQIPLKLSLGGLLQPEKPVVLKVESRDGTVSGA
22.4 µM (inconclusive)

Lab request: please report AC50 under test system Cytochrome P450 3A4 (Homo sapiens, UniProt P08684) for O=C(c1ccco1)N1CCC2(CCCN(c3ccccn3)C2)CC1
15.8 µM (inconclusive)

Could you share what AC50 was measured for Cc1ccc(N=C(S)N2CCN(C(=O)C3CCCO3)CC2)c(C)c1 (stereo unspecified) , tested on Cytochrome P450 3A4 (Homo sapiens, UniProt P08684)?
22.4 µM (inconclusive)

Lab note: need AC50 with Cytochrome P450 3A4 (Homo sapiens, UniProt P08684) for entry Cc1cccc(OC2(c3ccccc3)OC(=O)c3ccccc32)c1C (stereo unspecified) , please look it up.
28.2 µM (inconclusive)

// fetch Cytochrome P450 3A4 (Homo sapiens, UniProt P08684) AC50 for CN(Cc1cc(Br)cc(Br)c1O)Cc1c(O)ccc2ccccc12
3.98 µM (inconclusive)

Please tell me: AC50 of Cc1cccc(NC(=NS(=O)(=O)c2ccccc2)C(F)(F)F)c1 , system Cytochrome P450 3A4 (Homo sapiens, UniProt P08684)?;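 also: CYP3A4 tested as one member of a cytochrome P450 panel screen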
25.1 µM (inconclusive)

====

target: Nucleotide-binding oligomerization domain-containing protein 2 (Homo sapiens, UniProt Q9HC29); experiment: NOD2 signaling inhibitors, cell-based, luminescence, uHTS, HEK293 (AID 1566); type: functional
Active and inactive are the calls of the source.
Result category, one only: yes (active), no (inactive)

Could you check what this test reported for O=C(CCl)N1c2ccccc2SCC1c1ccccc1 (centres undefined) ?
no

Just curious, what result did COc1ccc(C(=O)NC(=C(Cl)Cl)S(=O)(=O)c2ccc(C)cc2)cc1 get here?
no

So what was the verdict on Cc1ccc2c(c1)CCCN2S(=O)(=O)c1cccc(C(=O)Nc2ccccc2C(=O)O)c1 in this test?
yes

GET /call?item= CCCCCn1c(=O)c(C(=O)Nc2ccccc2S(N)(=O)=O)c(O)c2ccccc21 returns the recorded outcome of this test.
yes

====

target: Dual specificity protein kinase CLK4 (Homo sapiens, UniProt Q9HAZ1); format: functional
Sequence (Q9HAZ1 whole entry): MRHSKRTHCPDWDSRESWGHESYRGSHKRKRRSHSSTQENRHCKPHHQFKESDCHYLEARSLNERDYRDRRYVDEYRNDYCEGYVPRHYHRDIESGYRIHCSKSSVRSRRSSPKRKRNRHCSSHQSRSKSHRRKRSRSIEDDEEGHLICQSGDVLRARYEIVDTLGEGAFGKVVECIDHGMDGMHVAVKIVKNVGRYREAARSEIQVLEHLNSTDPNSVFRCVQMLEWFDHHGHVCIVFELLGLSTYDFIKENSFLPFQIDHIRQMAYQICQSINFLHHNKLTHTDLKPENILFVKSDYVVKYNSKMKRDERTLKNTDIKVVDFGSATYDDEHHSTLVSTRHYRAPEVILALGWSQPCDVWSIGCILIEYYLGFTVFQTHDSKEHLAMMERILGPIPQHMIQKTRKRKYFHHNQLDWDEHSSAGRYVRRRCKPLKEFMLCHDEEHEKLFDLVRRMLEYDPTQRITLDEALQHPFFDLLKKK
The source made the active and inactive calls.
Attribute Measured: Ki

Which Ki value belongs to CCCCNc1cc(-c2ccncc2)cc2[nH]nc(N)c12 ?
0.00316 µM (active)

Record request: Ki value, item NC(=O)c1cnn2c(-c3ccccc3)ccnc12
3.98 µM (active)

Need Ki of Nc1n[nH]c2nc(Cl)sc12 , thanks.
5.01 µM (active)

Suppose we examine the compound Cc1[nH]c(=O)oc(=O)c1-c1ccccc1 ; what Ki value has been reported?
20 µM (active)

====

target: UniProtKB P41145; assay type: functional
Sequence (P41145 whole entry): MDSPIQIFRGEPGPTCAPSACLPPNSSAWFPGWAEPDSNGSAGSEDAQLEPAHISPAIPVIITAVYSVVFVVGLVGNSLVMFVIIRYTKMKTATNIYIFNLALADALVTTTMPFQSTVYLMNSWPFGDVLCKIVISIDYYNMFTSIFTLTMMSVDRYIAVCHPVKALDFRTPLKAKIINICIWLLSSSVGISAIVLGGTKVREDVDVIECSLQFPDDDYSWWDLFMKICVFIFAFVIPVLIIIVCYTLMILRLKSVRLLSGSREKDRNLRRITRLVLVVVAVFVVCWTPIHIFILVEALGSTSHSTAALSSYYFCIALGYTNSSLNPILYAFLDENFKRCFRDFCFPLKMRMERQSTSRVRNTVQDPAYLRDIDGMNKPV
Attribute Measured: IC50

Tell me the measured IC50 of CCCOc1ccc(C(=O)NNC(=S)NC(=O)CC)cc1 , please.
> 32 µM

====

biological target: Peroxisome proliferator-activated receptor gamma/Nuclear receptor coactivator 1 (Homo sapiens); test: TR-FRET dose response biochemical High Throughput Screening assay for agonists of the steroid receptor coactivator 1 (SRC-1) recruitment by the peroxisome proliferator-activated receptor gamma (PPAR gamma): non-selective agonists. [Related pubchem assays (depositor defined):AID1300, AID1808, AID504735, AID631]; format: protein assay
Sequence (P37231 whole entry): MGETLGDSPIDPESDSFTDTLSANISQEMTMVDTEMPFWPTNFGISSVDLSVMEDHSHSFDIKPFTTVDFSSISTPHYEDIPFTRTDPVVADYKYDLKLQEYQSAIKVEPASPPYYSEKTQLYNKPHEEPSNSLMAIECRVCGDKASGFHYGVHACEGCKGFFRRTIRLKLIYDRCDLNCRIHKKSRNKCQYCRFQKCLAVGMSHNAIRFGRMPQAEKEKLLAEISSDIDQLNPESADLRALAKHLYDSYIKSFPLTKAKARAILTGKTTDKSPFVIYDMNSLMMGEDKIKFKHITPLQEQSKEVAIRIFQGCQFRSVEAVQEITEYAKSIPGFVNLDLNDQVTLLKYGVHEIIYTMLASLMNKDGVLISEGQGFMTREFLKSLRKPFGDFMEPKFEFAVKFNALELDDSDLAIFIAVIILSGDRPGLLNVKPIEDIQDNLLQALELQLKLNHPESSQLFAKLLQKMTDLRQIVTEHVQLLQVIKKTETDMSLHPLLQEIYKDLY
Sequence (Q15788 whole entry, further chain): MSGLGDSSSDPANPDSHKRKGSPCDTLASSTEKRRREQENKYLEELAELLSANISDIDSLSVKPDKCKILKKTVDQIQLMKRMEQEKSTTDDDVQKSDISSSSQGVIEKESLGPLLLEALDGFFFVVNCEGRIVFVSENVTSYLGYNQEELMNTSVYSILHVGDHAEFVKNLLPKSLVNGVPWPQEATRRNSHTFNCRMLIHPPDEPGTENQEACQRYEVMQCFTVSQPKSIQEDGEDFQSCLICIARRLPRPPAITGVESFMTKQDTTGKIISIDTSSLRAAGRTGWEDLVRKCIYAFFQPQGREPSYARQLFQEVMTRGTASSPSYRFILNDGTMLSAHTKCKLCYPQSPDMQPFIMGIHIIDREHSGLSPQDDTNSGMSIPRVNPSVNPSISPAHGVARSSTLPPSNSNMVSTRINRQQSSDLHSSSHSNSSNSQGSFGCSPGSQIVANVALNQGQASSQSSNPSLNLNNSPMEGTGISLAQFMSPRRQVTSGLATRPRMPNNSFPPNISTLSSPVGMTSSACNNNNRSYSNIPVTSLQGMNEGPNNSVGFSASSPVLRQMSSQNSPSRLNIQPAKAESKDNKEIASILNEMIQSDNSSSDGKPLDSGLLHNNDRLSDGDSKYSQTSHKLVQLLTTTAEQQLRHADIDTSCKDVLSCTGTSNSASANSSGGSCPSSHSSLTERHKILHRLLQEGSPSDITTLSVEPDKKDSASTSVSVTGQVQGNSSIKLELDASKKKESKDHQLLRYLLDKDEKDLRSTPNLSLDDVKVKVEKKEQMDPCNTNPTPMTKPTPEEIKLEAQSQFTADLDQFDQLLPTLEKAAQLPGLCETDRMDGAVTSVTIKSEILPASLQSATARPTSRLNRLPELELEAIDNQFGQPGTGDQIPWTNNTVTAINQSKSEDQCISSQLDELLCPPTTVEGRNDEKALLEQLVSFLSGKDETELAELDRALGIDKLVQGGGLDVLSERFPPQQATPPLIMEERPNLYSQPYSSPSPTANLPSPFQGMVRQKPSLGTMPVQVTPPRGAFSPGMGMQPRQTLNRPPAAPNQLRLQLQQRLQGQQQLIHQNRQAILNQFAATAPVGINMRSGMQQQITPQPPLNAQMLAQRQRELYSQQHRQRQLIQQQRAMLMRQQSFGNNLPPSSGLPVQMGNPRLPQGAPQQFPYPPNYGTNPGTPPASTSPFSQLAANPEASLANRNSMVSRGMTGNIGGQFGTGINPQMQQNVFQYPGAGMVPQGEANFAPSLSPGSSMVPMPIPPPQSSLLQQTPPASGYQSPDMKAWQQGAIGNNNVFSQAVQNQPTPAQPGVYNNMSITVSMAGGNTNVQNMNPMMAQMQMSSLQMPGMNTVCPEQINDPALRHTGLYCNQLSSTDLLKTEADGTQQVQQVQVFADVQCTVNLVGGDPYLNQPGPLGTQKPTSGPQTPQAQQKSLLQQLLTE
Calls of active or inactive are those of the source.
Attribute Measured: EC50

EC50 lookup needed for COC(=O)c1c(N=C(S)Nc2ccc(CC(=O)O)cc2)sc(C)c1C , thanks.
13.3 µM (inactive)

Param item = [O-][N+]1=c2ccc(Nc3ccccc3)cc2=NC12CCCCC2 ; retrieve measured EC50.
14.9 µM (inactive)

Find the recorded EC50 belonging to COc1ccc(C2C(C(=O)c3ccco3)=C(O)C(=O)N2c2nnc(C)s2)cc1 (stereo not given) and report it.
19.8 µM (inactive)

# EC50 lookup, item CCn1c(=O)cc(SCC(=O)Nc2cccc(C)n2)c2ccccc21
> 79.4 µM (inactive)

Form field: reported EC50 of C=CCn1c(=S)[nH]c2scc(-c3cccs3)c2c1=O
4.03 µM (active)

====

molecular target: Phospholipase D1 (Homo sapiens); experiment: PLD1 inhibitor potency in cells, dose response (AID 602151); assay type: functional;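 also: cellular PLD1 assay in Calu-1 cells stimulated with PMA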
Sequence (Q13393 whole entry): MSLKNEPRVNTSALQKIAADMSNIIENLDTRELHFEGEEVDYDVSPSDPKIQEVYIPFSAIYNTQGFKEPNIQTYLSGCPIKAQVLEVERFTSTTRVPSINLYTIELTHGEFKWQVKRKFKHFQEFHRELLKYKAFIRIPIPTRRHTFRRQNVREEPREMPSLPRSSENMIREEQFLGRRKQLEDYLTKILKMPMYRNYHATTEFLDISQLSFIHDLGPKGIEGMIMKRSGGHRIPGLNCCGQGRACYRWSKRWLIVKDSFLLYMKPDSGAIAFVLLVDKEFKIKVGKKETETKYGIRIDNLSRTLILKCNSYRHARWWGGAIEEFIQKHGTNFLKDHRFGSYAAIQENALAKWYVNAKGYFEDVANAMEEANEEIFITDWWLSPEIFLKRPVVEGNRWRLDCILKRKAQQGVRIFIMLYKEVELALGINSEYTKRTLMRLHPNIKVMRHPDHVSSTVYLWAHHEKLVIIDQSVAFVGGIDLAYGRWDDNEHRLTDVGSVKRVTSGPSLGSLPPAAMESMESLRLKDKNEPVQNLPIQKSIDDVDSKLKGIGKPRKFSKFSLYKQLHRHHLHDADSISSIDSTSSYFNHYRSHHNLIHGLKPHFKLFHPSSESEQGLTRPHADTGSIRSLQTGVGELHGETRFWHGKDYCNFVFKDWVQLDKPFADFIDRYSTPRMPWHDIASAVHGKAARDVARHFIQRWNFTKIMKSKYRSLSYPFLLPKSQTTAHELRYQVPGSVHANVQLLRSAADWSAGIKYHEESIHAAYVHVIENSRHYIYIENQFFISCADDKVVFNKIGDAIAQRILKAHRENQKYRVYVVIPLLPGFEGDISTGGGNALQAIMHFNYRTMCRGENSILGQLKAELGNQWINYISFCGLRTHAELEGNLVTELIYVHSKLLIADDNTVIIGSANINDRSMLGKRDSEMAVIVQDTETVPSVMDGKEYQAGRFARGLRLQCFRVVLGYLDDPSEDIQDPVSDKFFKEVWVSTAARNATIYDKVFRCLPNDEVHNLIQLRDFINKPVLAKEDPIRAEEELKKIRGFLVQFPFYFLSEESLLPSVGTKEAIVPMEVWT
The source made the active and inactive calls.
Kindly state IC50 for each of the entries shown.

For the compound shown here, O=C(NCCN1CCC(n2c(=O)[nH]c3cc(I)ccc32)CC1)C1CC1c1ccccc1 (stereo not given) , give the reported IC50.
9 nM (active)

Entry under review: C[C@H](CN1CCC(n2c(=O)[nH]c3cc(Cl)ccc32)CC1)NC(=O)c1cc2ccccc2[nH]1 . Reported IC50?
2 nM (active)

Recorded IC50 for C[C@@H](CN1CCC2(CC1)C(=O)NCN2c1ccc(F)c(F)c1)NC(=O)c1cnc2ccccc2c1 , please?
16 nM (active)

Need IC50, item C[C@@H](CN1CCC(n2c(=O)[nH]c3ccccc32)CC1)NC(=O)c1cccnc1
85 nM (active)

Please look up its IC50: CC(C)[C@@H](CN1CCC2(CC1)C(=O)NCN2c1ccccc1)NC(=O)c1cc2ccccc2[nH]1
7 nM (active)

====

I'd appreciate it if you could supply AC50 values for the items below.
molecular target: Paired box protein Pax-8 (Homo sapiens, UniProt Q06710); experiment: inhibitors of PAX8-driven TPO luciferase reporter, dose response, RMG-I cells, cherry-pick (AID 687027); format: functional, cell-based;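 also: luciferase reporter driven by Pax8 target thyroperoxidase promoter measured by SteadyGlo luminescence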
Sequence (Q06710 whole entry): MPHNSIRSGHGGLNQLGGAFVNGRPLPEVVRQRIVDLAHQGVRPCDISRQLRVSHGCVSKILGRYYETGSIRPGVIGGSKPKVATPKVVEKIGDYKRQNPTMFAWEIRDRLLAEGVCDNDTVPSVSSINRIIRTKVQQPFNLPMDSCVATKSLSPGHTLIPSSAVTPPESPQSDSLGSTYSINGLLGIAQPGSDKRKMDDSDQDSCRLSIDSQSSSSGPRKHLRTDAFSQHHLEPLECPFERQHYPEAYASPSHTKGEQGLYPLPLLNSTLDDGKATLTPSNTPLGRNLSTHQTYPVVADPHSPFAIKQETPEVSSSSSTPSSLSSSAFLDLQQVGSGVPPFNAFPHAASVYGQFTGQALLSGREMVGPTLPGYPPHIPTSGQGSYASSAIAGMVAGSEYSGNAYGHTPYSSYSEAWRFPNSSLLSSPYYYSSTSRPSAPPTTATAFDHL
Active and inactive are the calls of the source.

Suppose we examine the molecule C[C@@H]1CCCCO[C@H](CN(C)C(=O)C2CCCCC2)[C@@H](C)CN([C@@H](C)CO)C(=O)c2cc(NC(=O)Nc3ccccc3)ccc2O1 ; what AC50 value has been reported?
5.39 µM (active)

Can you look up the measured AC50 of C[C@@H]1CN([C@@H](C)CO)C(=O)c2c(c3ccccc3n2C)-c2ccccc2CO[C@H]1CN(C)S(=O)(=O)c1cccc(F)c1 for me?
13.7 µM (active)

If you can, please state the reported AC50 value of COc1ccc2c3c([nH]c2c1)[C@H](CO)N(C(=O)Nc1cccc(F)c1)CC31CCN(S(=O)(=O)c2cccc(C)c2)CC1 .
5.2 µM (active)

Can you share its AC50? I mean this molecule: C[C@@H]1CN([C@H](C)CO)C(=O)c2cc(NS(=O)(=O)c3ccc(Cl)cc3)ccc2O[C@@H](C)CCCCO[C@@H]1CN(C)Cc1ccccc1
4.7 µM (active)

Returns the measured AC50 for the input molecule. Input: C[C@H](CO)N1C[C@H](C)[C@@H](CN(C)S(=O)(=O)c2cccs2)OCCCC[C@H](C)Oc2ccc(NS(=O)(=O)c3ccc(Cl)cc3)cc2C1=O
3.86 µM (active)

Which AC50 reading was recorded for the molecule C[C@@H]1CN([C@H](C)CO)C(=O)c2cccc(NC(=O)Nc3cccc4ccccc34)c2O[C@@H]1CN(C)S(=O)(=O)c1ccc(Cl)cc1 ?
5.69 µM (active)

Which AC50 is listed for C[C@@H]1CN([C@H](C)CO)C(=O)c2cc(NC(=O)Nc3ccc(C(F)(F)F)cc3)ccc2O[C@@H](C)CCCCO[C@H]1CN(C)S(=O)(=O)c1ccc(F)cc1 ?
6.53 µM (active)

Would you kindly share the measured AC50 for COc1ccc(-c2ccc3c(c2)[C@@H]2[C@@H](CCN2C(=O)NC2CCCCC2)[C@@H](CO)N3C)cc1 ?
14.5 µM (active)

Which AC50 reading was recorded for the molecule COc1cccc(/C=N/Nc2ccc([N+](=O)[O-])cn2)c1O ?
6.41 µM (active)

Could you tell me which AC50 is on file for COc1ccc(C[C@H]2NC[C@H](O)[C@H]2OC(C)=O)cc1 [ANISOMYCIN] ?
< 0.26 µM (active)

What value of AC50 has been recorded for this entry: C#CCN(C[C@@H]1[C@@H](OC(=O)NCC2CCCCC2)[C@@H](OC(=O)NCC2CCCCC2)Cn2c(=O)ccc(=O)n21)S(=O)(=O)c1ccc(C)cc1
3.03 µM (active)

What value of AC50 has been reported for the following molecule? CC(C)Nc1ccc(Nc2ccnc3cc4ccccc4cc23)cc1
7.04 µM (active)

Fill in: AC50 of Cc1ccc(S(=O)(=O)Nc2ccc3c(c2)C(=O)N([C@H](C)CO)C[C@@H](C)[C@@H](CN(C)Cc2ccc(C(F)(F)F)cc2)OCCCC[C@@H](C)O3)cc1 is ___
5.57 µM (active)
